Below: a set of entries, each annotated with reported pKd.
molecular target: T1, Soluble heterodimeric CD3 protein (hCD3-epsilon/hCD3-delta) with either a human Fc tag (hFcΔAdp/hFc) or a … (human, UniProt P07766 23-126; P04234 22-105); assay: SPR Biacore 25C antigen-capture
T1 construct: also called hCD3ε/δ; not shown: Fc tag: human (hFcΔAdp/hFc)
T1 sequence (P07766 23-126 limits assumed, stated change not applied, chain 1 of 2): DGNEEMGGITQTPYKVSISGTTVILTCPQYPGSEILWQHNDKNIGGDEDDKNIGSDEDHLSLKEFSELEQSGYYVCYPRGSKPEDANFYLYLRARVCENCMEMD
T1 sequence (P04234 22-105 limits assumed, stated change not applied, chain 2 of 2): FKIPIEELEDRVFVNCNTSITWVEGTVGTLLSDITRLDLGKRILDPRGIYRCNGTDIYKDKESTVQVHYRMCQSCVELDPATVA
// pKd is dimensionless: -log10 of concentration (M)

| Binder | pKd |
| --- | --- |
| H2M2690N (antibody, mouse IgG2, V domains shown, H2M: mouse IgG2 Fc, human variable regions; divalent) VH: EVQLVESGGGLVQPGRSLRLSCAASGFTFDDYTMHWVRQAPGKGLEWVSGISWNSGSIGYADSVKGRFTISRDNAKKSLYLQMNSLRAEDTALYYCAKDNSGYGHYYYGMDVWGQGTTVTVAS VL: EIVMTQSPATLSVSPGERATLSCRASQSVSSNLAWYQQKPGQAPRLLIYGASTRATGIPARFSGSGSGTEFTLTISSLQSEDFAVYYCQHYINWPLTFGGGTKVEIK | 10.10 |

Okay, next one:
Request the reported pKd associated with H1H5771P (antibody, human IgG1, V domains shown, H1H: human IgG1 Fc; divalent) VH: EVQLVESGGGLVQPGRSLRLSCAASGFSFDNYAMHWVRQAPGQGLEWVSGISWNSGSRDYADSVKGRFTISRDNARNSLFLQMNSLSNEDTAMYYCAKDKSGYGSYFYGMDVWGQGTTVTVSS VL: EIVLTQSPGTLSLSPGDRATLSCRASQSIRNIYLAWYQQKPGQAPRLLIHGASTRATGIPDRFSGSGSGTDFTLTISRLEPEDFAVYYCQQRVSLPYTFGQGTKLEIK 9.43
